Where do the numbers come from? From PubChem BioAssay.

molecular target: Torsin-1A (Homo sapiens); assay: small-molecule binders of mutant TOR1A in lysate, primary screen, cell lysate, small-molecule microarray, COS7 lysate, 635/667 nm fluorescence (AID 1150); conditions: COS7 hTOR1A mutant lysate, 635 nm fluorescence, higher = more signal;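 note: score pools 667 nm emission and signal to noise measuring lysate protein binding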
Measured composite z-score, listed per entry for reference.
// keep it numeric: no unit symbol after the value

For orientation, consider the following solved cases.
CCOC(=O)C1=CCC(c2ccc([N+](=O)[O-])cc2)N(S(=O)(=O)c2ccc(C)cc2)C1 (stereo not drawn) | 0.103
CC(C)Cc1ccc(CN2CC[C@@H](NS(=O)(=O)c3ccccc3)C2)cc1 | -0.274
CN1CCC(CCCO)=CC1c1ccc(CN2CCCC2)cc1 (stereo not drawn) | 2.86
O=c1oc(-c2ccccc2)nc2cc(Br)ccc12 | 0.508
O=C1O[C@H](c2ccccc2)[C@H](c2ccccc2)N2[C@H]1[C@@H](C(=O)Nc1nc3ccccc3s1)[C@]1(C(=O)Nc3ccccc31)[C@H]2c1ccc(O)cc1 | 0.414

Dear colleague, I am looking for the recorded composite z-score of the following compound: Cc1c(NC(=O)CC#N)c(=O)n(-c2ccccc2)n1C
-0.0384

Would you kindly share the measured composite z-score for COCCOC(=O)N1C(=O)[C@@]2(c3cc(C#CCCO)ccc31)[C@H](c1ccc(O)cc1)N1[C@H](c3ccccc3)[C@H](c3ccccc3)OC(=O)[C@H]1[C@@H]2C(N)=O ?
0.883

May I ask what composite z-score has been recorded for CC(=CC1CCCCC1)[C@@H](NC(=O)c1ccc(C(F)(F)F)cc1)c1ccc(-c2ccccc2)cc1 ?
-0.336
